- Target or test system: EP2 receptor (Homo sapiens)
- Construct: SF295 glioblastoma cells express high endogenous EP2 and no EP4
- Method: hEP2 cAMP assay (SF295 glioblastoma cells, HTRF cAMP, PGE2 stimulation)
- Condition label: antagonistic activity
Parameter measured: IC50 (µM)
Entry rule: numbers only, all in µM.

Prompt line: Please look up its IC50: CCOc1cc(-c2cc(NCCc3c(C)oc4c(C)cc(F)cc34)ncn2)sc1C(=O)O
Response line: 0.002

Prompt line: Same question for CCCOc1cc(-c2cc(NCCc3c(C)sc4c(C)cc(F)cc34)ncn2)ccc1C(=O)O please.
Response line: 0.02

Prompt line: Same question for CCCOc1cc(-c2cc(NCCc3c(C#N)sc4c(C)cc(F)cc34)ncn2)ccc1CC(=O)O please.
Response line: 0.142

Prompt line: Same question for COc1cc(-c2cc(NCCc3c(C)sc4c(OC)ccc(Cl)c34)ncn2)ccc1C(=O)O please.
Response line: 0.094

* * *

Kindly supply the reported IC50 values for the records listed here.
- Target or test system: PTGER4 (EP4) (Homo sapiens, UniProt P35408)
- Sequence (P35408 whole entry): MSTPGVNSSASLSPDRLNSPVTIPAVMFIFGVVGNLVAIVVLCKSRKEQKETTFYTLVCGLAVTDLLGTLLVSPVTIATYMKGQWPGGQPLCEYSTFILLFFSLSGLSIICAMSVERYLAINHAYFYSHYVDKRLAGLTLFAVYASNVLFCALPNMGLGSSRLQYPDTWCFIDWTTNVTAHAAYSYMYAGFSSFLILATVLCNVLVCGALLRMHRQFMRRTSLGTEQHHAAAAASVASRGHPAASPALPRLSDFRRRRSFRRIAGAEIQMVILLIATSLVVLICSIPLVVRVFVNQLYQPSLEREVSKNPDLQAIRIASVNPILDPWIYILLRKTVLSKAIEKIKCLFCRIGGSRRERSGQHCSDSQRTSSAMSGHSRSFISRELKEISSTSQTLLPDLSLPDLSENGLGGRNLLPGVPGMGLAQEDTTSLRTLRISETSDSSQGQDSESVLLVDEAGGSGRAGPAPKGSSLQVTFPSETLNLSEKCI
- Method: hEP4 b-arrestin assay (PathHunter HEK 293 PTGER4 b-arrestin cells)
- Condition label: antagonistic activity, beta-arrestin assay; read-out: hEP4 b-arr IC50

Prompt line: Please look up its IC50: Cc1sc2c(C)cccc2c1CCNc1cc(-c2ccc3cc(C(=O)O)oc3c2)ncn1
Response line: 1310 nM

Prompt line: Same question for CCCc1cc(-c2cc(NCCc3c(C)sc4c(C)cc(F)cc34)ncn2)ccc1C(=O)O please.
Response line: 57 nM

Prompt line: Same question for Cc1sc2ccccc2c1CCNc1cc(-c2ccc(C(=O)O)c(SC(C)C)c2)ncn1 please.
Response line: 843 nM

Prompt line: Same question for CCOc1cc(-c2cc(NCCc3c(C)sc4c(OC)ccc(F)c34)ncn2)ccc1C(=O)O please.
Response line: 117 nM

* * *

- Target or test system: PTGER2 (EP2) (Homo sapiens, UniProt P43116)
- Sequence (P43116 whole entry): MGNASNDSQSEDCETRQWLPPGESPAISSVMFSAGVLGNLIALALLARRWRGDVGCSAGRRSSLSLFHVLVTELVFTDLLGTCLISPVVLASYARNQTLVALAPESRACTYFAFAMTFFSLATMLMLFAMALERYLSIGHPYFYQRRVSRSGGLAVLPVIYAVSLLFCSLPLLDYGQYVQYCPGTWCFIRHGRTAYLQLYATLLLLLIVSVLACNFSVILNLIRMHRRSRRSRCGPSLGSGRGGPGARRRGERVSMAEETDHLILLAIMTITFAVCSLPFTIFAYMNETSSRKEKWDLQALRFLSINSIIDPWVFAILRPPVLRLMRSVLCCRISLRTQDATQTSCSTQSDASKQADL
- Method: hEP2 b-arrestin assay (PathHunter HEK 293 PTGER2 b-arrestin cells)
- Condition label: antagonistic activity, beta-arrestin assay; read-out: hEP2 b-arr IC50
Kindly supply the reported pIC50 values for the records listed here.
Remember the convention: pIC50 equals -log10 of concentration in molar.

Prompt line: Please look up its pIC50: COc1ccc(Cl)c2c(CCNc3cc(-c4ccc(C(=O)O)c(OC(F)F)c4)ncn3)c(C)sc12 [Example 116]
Response line: 7.52

Prompt line: Same question for CCOc1cc(-c2cc(NCCc3c(C)sc4c(C)cc(F)cc34)ncn2)ccc1-c1cc(O)no1 [Example 202] please.
Response line: 7.77

Prompt line: Same question for CCOc1cc(-c2cc(NCCc3c(C)oc4c(OC)ccc(F)c34)ncn2)ccc1C(=O)O [Example 67] please.
Response line: 7.14

Prompt line: Same question for COc1ccc(Cl)c2c(CCNc3cc(-c4ccc(C(=O)O)c(OC5CCC5)c4)ncn3)c(C)sc12 [Example 135] please.
Response line: 7.85

* * *

Kindly supply the reported pIC50 values for the records listed here.
- Target or test system: EP2 receptor (Homo sapiens)
- Construct: SF295 glioblastoma cells express high endogenous EP2 and no EP4
- Method: hEP2 cAMP assay (SF295 glioblastoma cells, HTRF cAMP, PGE2 stimulation)
- Condition label: antagonistic activity
Remember the convention: pIC50 equals -log10 of concentration in molar.

Prompt line: Please look up its pIC50: CCOc1cc(-c2cc(NCCc3c(C)oc4c(OC)ccc(F)c34)ncn2)sc1C(=O)O [Example 34]
Response line: 8.22

Prompt line: Same question for Cc1sc2c(C)cccc2c1CCNc1cc(-c2ccc(C(=O)O)c(SC(C)C)c2)ncn1 [Example 90] please.
Response line: 7.46

Prompt line: Same question for Cc1sc2c(C)cc(F)cc2c1CCNc1cc(-c2ccc(C(=O)O)c(OCCO)c2)ncn1 [Example 86] please.
Response line: 7.96

Prompt line: Same question for CCCOc1cc(-c2cc(NCCc3c(C)sc4c(C)cc(F)cc34)ncn2)ccc1CC(=O)O [Example 190] please.
Response line: 6.56

Prompt line: Same question for CCOc1cc(-c2cc(NCCc3c(C)sc4c(C)cc(F)cc34)ncn2)sc1CCC(=O)O [Example 97] please.
Response line: 6.92

Prompt line: Same question for CCOc1cc(-c2cc(NCCc3c(C)sc4c(Cl)ccc(Cl)c34)ncn2)ccc1CC(=O)O [Example 114] please.
Response line: 6.32

Prompt line: Same question for CSc1cc(-c2cc(NCCc3c(C#N)sc4c(C)cc(F)cc34)ncn2)ccc1C(=O)O [Example 12] please.
Response line: 8.40

Prompt line: Same question for CCCSc1cc(-c2cc(NCCc3c(C)sc4c(C)cccc34)ncn2)ccc1C(=O)O [Example 87] please.
Response line: 7.82

Prompt line: Same question for COc1ccc(F)c2c(CCNc3cc(-c4ccc(C(=O)O)c(OC5CCC5)c4)ncn3)c(C)oc12 [Example 139] please.
Response line: 6.61

Prompt line: Same question for COc1ccc(F)c2c(CCNc3cc(-c4ccc(C(=O)O)c(OC5CC5)c4)ncn3)c(C)sc12 [Example 84] please.
Response line: 7.68

Prompt line: Same question for Cc1sc2c(C)ccc(F)c2c1CCNc1cc(-c2ccc(C(=O)O)c(OC3CCC3)c2)ncn1 [Example 136] please.
Response line: 7.04

Prompt line: Same question for CCOc1cc(-c2cc(NCCc3c(CC)oc4c(C)cc(F)cc34)ncn2)sc1C(=O)O [Example 39] please.
Response line: 7.55

Prompt line: Same question for CCOc1cc(-c2cc(NCCc3c(C)sc4ccccc34)ncn2)ccc1C(=O)O [Example 72] please.
Response line: 8.10

Prompt line: Same question for Cc1sc2ccccc2c1CCNc1cc(-c2ccc(C(=O)O)c(SC(C)C)c2)ncn1 [Example 91] please.
Response line: 8.00

Prompt line: Same question for Cc1oc2c(C)cc(F)cc2c1CCNc1cc(-c2ccc(C(=O)O)c(OC3CCC3)c2)ncn1 [Example 140] please.
Response line: 7.14

Prompt line: Same question for CCOc1cc(-c2cc(NCCc3c(C)sc4c(C)c(F)ccc34)ncn2)ccc1C(=O)O [Example 62] please.
Response line: 7.85

src = patent US11325899B2
